# protocol-text: in vivo
# reported-conditions: ICR, mouse, po, 15 mg/kg
# Description: Oral bioavailability in ICR mouse at 15 mg/kg measured upto 24 hrs by LC-MS/MS analysis
reported-endpoint: bioavailability at 24 h (%)
Write the answer as a number in %, unit excluded.

Q: What measured bioavailability at 24 h goes with Cc1ccccc1CN1C(=O)C2=C(CCN(Cc3ccccc3)C2)N2CCN=C12.Cl.Cl.O ?
Result: 15.2

---

# protocol-text: in vivo
# reported-conditions: ICR, mouse, po, 10 mg/kg
# Description: AUC (0 to t) in ICR mouse at 10 mg/kg, po measured upto 24 hrs by LC-MS/MS analysis
reported-endpoint: AUC(0-t) at 24 h (ng·h/mL)
Write the answer as a number in ng·h/mL, unit excluded.

Q: What measured AUC(0-t) at 24 h goes with O=C1C2=C(CCN(Cc3ccccc3)C2)N2CCN=C2N1Cc1ccc(C(F)(F)F)cc1 ?
Result: 3350
